# SYSTEM: Phosphorylase b kinase gamma catalytic chain, liver/testis isoform (Homo sapiens)
# TEST PARAMETERS: at 10 µM

| COMPOUND | residual activity (%) |
| --- | --- |
| COc1ccc2c(c1)/C(=C/c1cnc[nH]1)C(=O)N2 | 22 |
| COc1ccc2c(c[n+](C)c3c4cc5c(cc4ccc23)OCO5)c1OC | 96 |
| O=C1c2ccccc2-c2nc3nnnn3nc21 | 120 |
| CC(C)[C@H](CO)Nc1nc(Nc2cccc(Cl)c2)c2ncn(C(C)C)c2n1 | 82 |
| O=[N+]([O-])/C=C/c1ccc2c(c1)OCO2 | 114 |
| O=C1Nc2ccc3ncsc3c2/C1=C/c1c[nH]cn1 | 10 |
| O=c1[nH]c2ccccc2n1C1CCN(Cc2ccc(-c3nc4cc5[nH]cnc5cc4nc3-c3ccccc3)cc2)CC1 | 53 |
| C[S+]([O-])c1ccc(-c2nc(-c3ccc(F)cc3)c(-c3ccncc3)[nH]2)cc1 (stereo not given) | 106 |
| COc1cc2ncnc(Nc3ccc(OCc4ccccc4)cc3)c2cc1OC | 113 |
| c1cc(-c2cnn3cc(-c4ccc(OCCN5CCCCC5)cc4)cnc23)ccn1 | 4 |
